// provenance: PubChem BioAssay (NCI)

# METHOD_NOTES: NCI Yeast Anticancer Drug Screen. Data for the bub3 strain (AID 167)
# CONDITION_SET: S. cerevisiae bub3 mutant strain, at 50.0 µM, active compounds read high
The panel holds about 79,000 compounds, 15% with a hit somewhere; the sample as a whole holds those more often.
Label rule met when growth inhibition is at or above -20%; anything below gets rule not met.

Q: In plain terms: is recorded growth inhibition at least -20% for Cc1cc(Cc2cc(Cc3cc(C)cc(C(C)(C)C)c3O)c(C)cc2C)c(O)c(C(C)(C)C)c1 ?
A: rule not met

Q: Confirm if growth inhibition reported for the compound CC(=O)NCCO is -20% or above.
A: rule met

Q: Entry CC(C)=CCCC(=O)C(c1nc2nnc(N)n2[nH]c1=O)c1nc2nnc(N)n2[nH]c1=O : is its growth inhibition no less than -20%?
A: rule met

Q: Threshold query (growth inhibition >= -20%) on OCC1COC(c2ccc(Cl)cc2)O1 (stereo not given)
A: rule met

Q: Check if growth inhibition >= -20% (inclusive). Item: CCCCCCCCCSCCS
A: rule met

###

# METHOD_NOTES: NCI Yeast Anticancer Drug Screen. Data for the sgs1 mgt1 strain (AID 161);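 note: 0% = growth of cultures given vehicle only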
# CONDITION_SET: S. cerevisiae sgs1 mgt1 strain, at 50.0 µM, active compounds read high
# Method: Growth inhibition of yeast strains with defined genetic alterations is measured as a screen for potential anti-cancer activity. Selected strains with alterations in DNA damage repair or cell cycle control were exposed to compounds and growth inhibition was measured relative to vehicle treated controls. The strain used in this assay is sgs1 mgt1
Compounds without any hit were thinned out: in the full panel of roughly 79,000, 15% have a hit.
Could you please report measured growth inhibition for the items listed next?
Give the value, in units of %, as a plain number.

Q: For the compound OCCC(CO)Cc1ccc2c(c1)OCO2 (stereo not drawn) , what growth inhibition is on record?
A: 9.3

Q: Look at this compound and give its reported growth inhibition. O=[N+]([O-])c1ccc(Nc2ccccc2)c2nonc12
A: -0.1

Q: Which growth inhibition is reported for this compound? CC(C)(C)C(=O)C(C(c1ccccc1)N1CCOCC1)N1CCOCC1 (stereo not drawn)
A: -33.6

###

# METHOD_NOTES: NCI Yeast Anticancer Drug Screen. Data for the bub3 strain (AID 167)
# CONDITION_SET: S. cerevisiae bub3 mutant strain, at 50.0 µM, active compounds read high
About 79,000 compounds went through this panel and 15% of them were active in at least one assay; those are over-represented in the sample as a whole.
Decision: growth inhibition >= 20% yields True, all other cases yield False.

Q: Given the entry Nc1cc2c(cc1Br)-c1cc(Cl)c(Cl)cc1C2=O , answer whether its growth inhibition meets or surpasses 20%.
A: False

Q: Hi, just wondering whether Cc1ccc(S(=O)(=O)N2CCN(C=S)CC2)cc1 shows growth inhibition of 20% or higher.
A: True

Q: Quick check: does O=C(NC(=O)c1c(F)cccc1F)Nc1ccc(Br)cc1 have growth inhibition greater than or equal to 20%?
A: True

Q: API: above_or_equal(metric=growth inhibition, cutoff=20%) for item COc1ccc(C(O)C(C)(C(=O)O)c2ccccc2)cc1 (stereo unspecified)
A: False

Q: Decide: growth inhibition of COc1ccc2[nH]c(=O)cc(C)c2c1 >= 20%?
A: False

Q: Check the entry COc1cccc(CN(CCc2cccc(OC)c2OC)C(=O)CN2CCOCC2)c1O : does growth inhibition equal or exceed 20%?
A: False
